- TARGET_OR_TEST_SYSTEM: Ectonucleoside triphosphate diphosphohydrolase 8 (Rattus norvegicus)
- Sequence (whole entry): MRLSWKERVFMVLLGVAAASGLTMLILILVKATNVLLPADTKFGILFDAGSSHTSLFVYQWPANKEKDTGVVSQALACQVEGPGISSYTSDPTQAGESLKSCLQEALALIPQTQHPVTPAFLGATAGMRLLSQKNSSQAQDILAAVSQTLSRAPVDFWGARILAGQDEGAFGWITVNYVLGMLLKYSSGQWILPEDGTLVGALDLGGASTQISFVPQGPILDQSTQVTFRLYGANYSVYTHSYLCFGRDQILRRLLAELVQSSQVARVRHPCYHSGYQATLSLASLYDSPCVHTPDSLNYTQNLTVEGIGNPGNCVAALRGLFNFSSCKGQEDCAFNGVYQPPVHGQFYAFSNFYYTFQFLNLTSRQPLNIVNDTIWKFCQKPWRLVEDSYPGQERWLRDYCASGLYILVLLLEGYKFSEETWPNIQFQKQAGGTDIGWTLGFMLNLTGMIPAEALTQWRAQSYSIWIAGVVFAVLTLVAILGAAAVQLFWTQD
- MEASUREMENT_DESCRIPTION: Inhibition of rat NTPDase8 using ATP as substrate preincubated for 10 mins followed by substrate addition measured after 10 mins by malachite green reagent-based assay
- Set-up: concentration or dose not given beside the values
QUANTITY_NAME: inhibition (%)
Numeric answer only, unit % assumed.

I would be grateful if you could share the reported inhibition for Cc1nn(C(=O)c2ccc(Cl)cc2)c(C)c1Cl .
29.9

I would be grateful if you could share the reported inhibition for Cc1cc(C)n(C(=O)c2ccc(N)cc2)n1 .
41.3

I would be grateful if you could share the reported inhibition for Cc1nn(C(=O)c2ccc(N)cc2)c(C)c1Cl .
32.9

I would be grateful if you could share the reported inhibition for Cc1ccccc1C(=O)n1nc(C)c(Cl)c1C .
44.7

I would be grateful if you could share the reported inhibition for Cc1cc(C)n(C(=O)c2ccc(Cl)cc2)n1 .
25.7

I would be grateful if you could share the reported inhibition for Cc1ccc(Oc2c(C)nn(C(=O)c3ccc(N)cc3)c2C)cc1 .
35.5

I would be grateful if you could share the reported inhibition for Cc1ccc(Oc2c(C)nn(C(=O)c3ccc(Cl)cc3)c2C)cc1 .
49.3

I would be grateful if you could share the reported inhibition for Cc1ccc(C(=O)n2nc(C)c(Cl)c2C)cc1 .
33.3

I would be grateful if you could share the reported inhibition for Cc1nn(C(=O)c2ccncc2)c(C)c1Cl .
41.5

I would be grateful if you could share the reported inhibition for Cc1cccc(C(=O)n2nc(C)c(Cl)c2C)c1 .
46.6

I would be grateful if you could share the reported inhibition for Cc1nn(C(=O)[C@H](C)c2ccc(CC(C)C)cc2)c(C)c1Cl .
43

I would be grateful if you could share the reported inhibition for Cc1cc(C)n(C(=O)c2ccncc2)n1 .
23.9

I would be grateful if you could share the reported inhibition for Cc1cc(=O)n(C(=O)c2ccc(N)cc2)[nH]1 .
46.9
